molecular target: Nuclear receptor subfamily 1 group I member 3 (Homo sapiens) (UniProt Q14994); experiment: qHTS assay to identify small molecule agonists of the constitutive androstane receptor (CAR) signaling pathway (AID 1224839); details: HepG2 hCAR CYP2B6-luciferase, agonist mode, 24 h; series mostly up to 92.4 µM; further: nearly all actives have a fitted effect of over 15% in size;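 on activation: HepG2 cells stably carrying human CAR and a CYP2B6 luciferase reporter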
Sequence (Q14994 whole entry, looked up): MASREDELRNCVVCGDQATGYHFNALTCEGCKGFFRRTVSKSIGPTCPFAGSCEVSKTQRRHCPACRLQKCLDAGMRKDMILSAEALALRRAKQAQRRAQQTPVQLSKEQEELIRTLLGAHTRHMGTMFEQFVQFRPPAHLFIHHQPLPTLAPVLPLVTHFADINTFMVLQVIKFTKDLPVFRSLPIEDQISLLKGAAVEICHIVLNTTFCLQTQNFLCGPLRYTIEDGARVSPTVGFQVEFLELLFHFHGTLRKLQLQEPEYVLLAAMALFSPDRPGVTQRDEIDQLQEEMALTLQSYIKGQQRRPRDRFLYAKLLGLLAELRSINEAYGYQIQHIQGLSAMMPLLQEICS
Inconclusive results are not listed. Activity calls are given as the source filed them. The call rests on the fitted dose curve; in most records, active means well fitted activation curve with a large enough effect in the repeat runs; inconclusive means weak or mixed curves; inactive means no such curve, though single readings can be large or run the other way.
Respond with a class label; see active, inactive

Outcome? `Cc1cc(SCc2sc(-c3ccc(C(F)(F)F)c(F)c3)nc2C)ccc1OCC(=O)O`
inactive

Outcome? `COc1cccc(C(=O)CCN[C@@H](C)[C@H](O)c2ccccc2)c1`
inactive

Outcome? `CC(C)CCCCCOC(=O)c1ccccc1C(=O)OCCCCCC(C)C`
inactive

Outcome? `Oc1ccc(C(=C(Cl)Cl)c2ccc(O)cc2)cc1`
active

Outcome? `C[C@]12CC[C@@H]3c4ccc(OC(=O)N(CCCl)CCCl)cc4CC[C@H]3[C@@H]1CC[C@@H]2O`
inactive

Outcome? `Cc1ccc(C(=O)Cl)cc1`
inactive

====

assay: qHTS RealTime-Glo MT Cell Viability Assay in HEK293 cells - 32 hour (AID 1224868); settings: RealTime-Glo luminescence; series mostly up to 76.8 µM; further: nearly all actives have a fitted effect of over 50% in size; further: potency means the concentration at half of the fitted maximal effect
Results filed as inconclusive are left out. Active and inactive are the calls of the source. The call rests on the fitted dose curve; in most records, active means well fitted cell-killing curve with a large enough effect in the repeat runs; inconclusive means weak or mixed curves, or effect the other way; inactive means flat fitted curve, though single readings scatter.
READOUT LABEL: Potency

Examples with their reported Potency follow.
COMPOUND | Potency
C=COCCCl | inactive
N#CCCO | inactive
CN(C)C1CSSSC1 | inactive
CCOC(=O)OC1=C(c2cc(C)ccc2C)C(=O)NC12CCC(OC)CC2 (stereo not drawn) | inactive

Given the entry `ClC1=C(Cl)[C@]2(Cl)[C@@H]3[C@@H]4C[C@@H]([C@H]5O[C@@H]45)[C@@H]3[C@@]1(Cl)C2(Cl)Cl` , report its measured Potency.
21.9 µM (active)

Given the entry `Cc1ccc(OP(=O)(Oc2ccccc2)Oc2ccccc2)cc1` , report its measured Potency.
inactive

Given the entry `CC(=O)/C=C/c1ccc2c(c1)OCO2` , report its measured Potency.
inactive

Given the entry `NNC(=O)c1ccccc1` , report its measured Potency.
inactive

Given the entry `CC(C)Oc1cccc(NC(=O)c2ccccc2C(F)(F)F)c1` , report its measured Potency.
24.5 µM (active)

Given the entry ClC1=C(Cl)C2(Cl)C3C(Cl)C(Cl)CC3C1(Cl)C2(Cl)Cl (stereo not drawn) , report its measured Potency.
48.8 µM (active)

====

test: qHTS assay for small molecule disruptors of the mitochondrial membrane potential - cell viability (AID 720634); details: HepG2 viability, ATP luminescence (CellTiter-Glo), 1 h; series mostly up to 83.2 µM; further: nearly all actives have a fitted effect of over 20% in size; further: potency means the concentration at half of the fitted maximal effect
Results filed as inconclusive are left out. Calls of active or inactive are those of the source. Calls follow the shape of the full dose curve.
READOUT LABEL: Potency

COMPOUND | Potency
CC(Cc1ccc(C(C)(C)C)cc1)CN1C[C@@H](C)O[C@@H](C)C1 (stereo partly specified) | inactive
CCC[CH2][Sn]([CH2]CCC)([CH2]CCC)[O]C(=O)c1ccccc1 | 2.17 µM (active)
Oc1ccc(C(c2ccc(O)cc2)(C(F)(F)F)C(F)(F)F)cc1 | inactive
Clc1ccc(CO/N=C(\Cn2ccnc2)c2ccc(Cl)cc2Cl)c(Cl)c1 | inactive
CCCOCC(=Nc1ccc(Cl)cc1C(F)(F)F)n1ccnc1 | 30.6 µM (active)

# input for lookup
Given the entry `O=[N+]([O-])c1cc(C(F)(F)F)c(Cl)c([N+](=O)[O-])c1Cl` , report its measured Potency.
15.4 µM (active)

====

assay: Caspase-3/7 induction in CHO-K1 cells by small molecules, qHTS assay (AID 1346980); conditions: CHO-K1 caspase-3/7 induction, Caspase-Glo luminescence, 17 h; series mostly up to 92.4 µM; further: nearly all actives have a fitted effect of over 15% in size
The source made the active and inactive calls. Calls follow the shape of the dose curve; as a rule, active = well fitted activation curve with a large enough effect in the repeat runs; inconclusive = weak or mixed curves; inactive = flat fitted curve, though single readings scatter.
Respond with a class label; see active, inactive

Outcome? `CCOP(=S)(OCC)SCS(=O)(=O)CC`
inactive

Outcome? `CC(C)CC(C)(c1ccc(O)cc1)c1ccc(O)cc1`
inactive

Outcome? `CC(C)[C@H](C(=O)O[C@H](C#N)c1cccc(Oc2ccccc2)c1)c1ccc(Cl)cc1`
inactive

Outcome? `Cl/C=C\CCl`
inactive

Outcome? `N#C/C=C/c1ccccc1`
inactive

Outcome? `CC(C)CCCCCOC(=O)c1ccccc1C(=O)OCCCCCC(C)C`
inactive

Outcome? `S=C=Nc1cccc2ccccc12`
inactive

Outcome? `CCCCCCCCCCBr`
inactive

Outcome? COc1cc(N)c(Cl)cc1C(=O)NC1CN2CCC1CC2 (stereo not given)
inactive

Outcome? `Nc1ccc([N+](=O)[O-])cc1Cl`
inactive

Outcome? `COc1ccc(N)cc1N`
inactive

Outcome? `C[C@H]1O[C@@H](O[C@H]2[C@@H](O)C[C@H](O[C@H]3[C@@H](O)C[C@H](O[C@H]4CC[C@@]5(C)[C@H](CC[C@@H]6[C@@H]5CC[C@]5(C)[C@@H](C7=CC(=O)OC7)CC[C@]65O)C4)O[C@@H]3C)O[C@@H]2C)C[C@H](O)[C@@H]1O`
inactive

Outcome? `Nc1c(Oc2ccccc2)cc(O)c2c1C(=O)c1ccccc1C2=O`
inactive

Outcome? `CC[C@H]1C[C@@H]2C[C@H]3c4[nH]c5ccc(OC)cc5c4CCN(C2)[C@@H]13`
inactive

Outcome? `Clc1ccc(-c2ccc(Cl)c(Cl)c2Cl)c(Cl)c1Cl`
inactive

Outcome? C1CCC2CCCCC2C1 (stereo not given)
inactive

Outcome? `CN(C)C(=S)S`
inactive

Outcome? `ClC1=C(Cl)[C@]2(Cl)[C@@H]3[C@@H](Cl)[C@@H](Cl)C[C@@H]3[C@@]1(Cl)C2(Cl)Cl`
inactive

Outcome? CC(Cl)CN(C)C (stereo not given)
inactive

Outcome? `CCOP(=S)(OCC)SCCS(=O)(=O)CC`
inactive

Outcome? COc1ccc(OC)c(CC(C)N)c1 (stereo not given)
inactive

Outcome? `O=c1ssc(Cl)c1Cl`
inactive

Outcome? `O=[N+]([O-])c1ccc2ccc3cccc4ccc1c2c34`
inactive

Outcome? `CC(=O)[O-].CC(=O)[O-].[Hg+2]`
inactive

Outcome? `CCOCn1c(-c2ccc(Cl)cc2)c(C#N)c(Br)c1C(F)(F)F`
inactive

Outcome? `O=C(CCl)C(Cl)Cl`
inactive

Outcome? `S=C(SSC(=S)N1CCCCC1)N1CCCCC1`
inactive

Outcome? `ClCCN1CCOCC1`
inactive

Outcome? CC(C)(COCC1CO1)COCC1CO1 (stereo not given)
inactive

Outcome? `Nc1ccccc1C(=O)Oc1ccc2ccccc2c1`
inactive

Outcome? CCCN(CC)CC1COC2(CCC(C(C)(C)C)CC2)O1 (stereo not given)
inactive

Outcome? `BrC(Br)Br`
inactive

Outcome? `Oc1ccc(C(c2ccc(O)cc2)(C(F)(F)F)C(F)(F)F)cc1`
inactive

Outcome? `O=C/C(Cl)=C(/Cl)C(=O)O`
inactive

Outcome? `CCOC(=O)C1(c2ccccc2)CCN(CCC(C#N)(c2ccccc2)c2ccccc2)CC1`
inactive

Outcome? CC(C)CC(C)N (stereo not given)
inactive

Outcome? `CC(=O)C(Cl)(Cl)Cl`
inactive

Outcome? `CCCN(CCC)c1c([N+](=O)[O-])cc(S(N)(=O)=O)cc1[N+](=O)[O-]`
active

Outcome? `CC(=O)Nc1ccc2c(c1)Cc1ccccc1-2`
inactive

Outcome? `Cc1cc(C(C)(C)c2cc(C)c(O)c(C)c2)cc(C)c1O`
inactive

Outcome? CCOC(=O)OC1=C(c2cc(C)ccc2C)C(=O)NC12CCC(OC)CC2 (stereo not given)
inactive

Outcome? `CC(c1ccc(O)cc1)c1ccc(O)cc1`
inactive

Outcome? `C[C@]12CC[C@H]3[C@@H](CCC4=CC(=O)CC[C@@]43C)[C@@H]1CC[C@@H]2O`
inactive

Outcome? CC(C)(C)C(O)/C(=C\c1ccc(Cl)cc1Cl)n1cncn1 (stereo not given)
inactive

Outcome? `CC1(C)CN=C(NN=C(/C=C/c2ccc(C(F)(F)F)cc2)/C=C/c2ccc(C(F)(F)F)cc2)NC1`
inactive

====

assay: A CellTox Green Cytotoxicity Assay to monitor cytotoxicity in HepG2 cells - 8 hour (AID 1224890); details: CellTox Green fluorescence; series mostly up to 76.8 µM; further: nearly all actives have a fitted effect of over 45% in size
Inconclusive results are not listed. Calls of active or inactive are those of the source. Calls follow the shape of the dose curve; as a rule, active = well fitted activation curve with a large enough effect in the repeat runs; inconclusive = weak or mixed curves; inactive = flat fitted curve, though single readings scatter.
Respond with a class label; see YES for active, NO for inactive

Outcome? `CCCCCCCCCCCCCCCCCCn1cc[n+](C)c1`
YES

Outcome? `CC(C)(C)OO`
NO

Outcome? `C=CCOC(N)=O`
NO

Outcome? `N#C/C=C/c1ccccc1`
NO

Outcome? `CC(C)Oc1cccc(NC(=O)c2ccccc2C(F)(F)F)c1`
YES

Outcome? `c1ccc(Nc2ccc3ccccc3c2)cc1`
NO

Outcome? `ClCc1ccc(Cl)cc1Cl`
NO

Outcome? `CC1(C)CN=C(NN=C(/C=C/c2ccc(C(F)(F)F)cc2)/C=C/c2ccc(C(F)(F)F)cc2)NC1`
YES

Outcome? `Nc1ccccc1C(=O)OC/C=C/c1ccccc1`
NO

Outcome? `CC(=O)C(Cl)(Cl)Cl`
NO

Outcome? `C[C@@H]1O[C@@H](O[C@@H]2C=C3CC[C@@H]4[C@H](CC[C@]5(C)[C@@H](c6ccc(=O)oc6)CC[C@]45O)[C@@]3(C)CC2)[C@H](O)[C@H](O)[C@H]1O`
NO

Outcome? `CC(=O)O[C@H]1CC[C@@]2(C)C(=CC[C@@H]3[C@@H]2CC[C@]2(C)C(=O)CC[C@@H]32)C1`
NO

Outcome? `CC(c1ccc(O)cc1)c1ccc(O)cc1`
NO

Outcome? `CCOP(=S)(OCC)SCS(=O)(=O)CC`
NO

Outcome? `NNC(=O)c1ccccc1`
NO

Outcome? `C[C@]12Cc3nonc3C[C@@H]1CC[C@@H]1[C@@H]2CC[C@@]2(C)[C@H]1CC[C@]2(C)O`
NO

Outcome? COc1cccc2c1C(=O)c1c(O)c3c(c(O)c1C2=O)C[C@@](O)(C(=O)CO)CC3OC1CC(N2CCOC(OC)C2)C(O)C(C)O1 (some centres undefined)
YES

Outcome? `C[C@]12CC[C@H]3[C@@H](CCC4=CC(=O)CC[C@@]43C)[C@@H]1CC[C@@H]2O`
NO

Outcome? `Oc1ccc(C(c2ccc(O)cc2)(C(F)(F)F)C(F)(F)F)cc1`
NO
